Caco2 Papp (10^-6 cm/sec) overview
tested on: Caco-2 cells; experiment: Membrane permeability test using Caco-2 cells with preincubation; format: in vitro ADME; conditions: Caco-2 cells, preincubation 20 to 24 hours; apical FaSSIF/HBSS 1% DMSO pH 6.0, basal HBSS 4% BSA pH 7.4; basal sample at 180 minutes
Positions of bridges follow the written chain, without caps; N, C: chain ends. Non-standard residues stand in square brackets, D forms with d. Residues, ends and D or L forms follow the SMILES beside them. *: point of attachment. NMeF = CN[C@@H](Cc1ccccc1)C(=O)O; NMeI = CC[C@H](C)[C@H](NC)C(=O)O; NMeT = CN[C@H](C(=O)O)[C@@H](C)O; NMeL = CN[C@@H](CC(C)C)C(=O)O; NMeV = CN[C@H](C(=O)O)C(C)C; d(β3hA) = C[C@@H](N)CC(=O)O; NMeAbu = CC[C@H](NC)C(=O)O; NMeA = CN[C@@H](C)C(=O)O; Piperidide = C1CCN(*)CC1; Abu = CC[C@H](N)C(=O)O

- compound: "CC[C@@H]1NC(=O)[C@H](CC(C)C)N(C)C(=O)[C@H]([C@@H](C)CC)NC(=O)[C@H](CC(C)C)N(C)C(=O)C[C@@H](C)NC(=O)[C@H](C(C)C)N(C)C(=O)[C@H](CC(C)C)NC(=O)[C@H](CC)N(C)C(=O)[C@H](Cc2ccccc2)N(C)C(=O)[C@@H]2CCCN2C(=O)[C@H](CC(C)C)NC(=O)[C@H]([C@@H](C)O)N(C)C(=O)[C@H](C)NC(=O)[C@H](CC(C)C)N(C)C1=O [pd053] (cyclo(A[NMeT]LP[NMeF][NMeAbu]L[NMeV][d(β3hA)][NMeL]I[NMeL][Abu][NMeL]))"
  experimental_system: "Caco-2 cells"
  Caco2 Papp (10^-6 cm/sec): "1.64 10^-6 cm/sec"

# evaluate next
Quote Caco2 Papp (10^-6 cm/sec) reported for CC[C@H](C)[C@@H]1NC(=O)[C@H](CC(C)C)N(C)C(=O)[C@H](CC(C)C)NC(=O)[C@H](C)N(C)C(=O)C[C@@H](C(=O)N2CCCCC2)NC(=O)[C@H](CC(C)C)NC(=O)[C@@H]2CCCN2C(=O)[C@H](CC(C)C)N(C)C(=O)[C@H]([C@@H](C)O)NC(=O)[C@H]([C@@H](C)CC)N(C)C(=O)[C@H](Cc2ccccc2)N(C)C(=O)[C@H](C)NC(=O)[C@H](Cc2ccccc2)N(C)C1=O [pd104] ([NMeA]L[NMeL]I[NMeF]A[NMeF][NMeI]T[NMeL]PLD-Piperidide; lactam N-13) please. 0.20 10^-6 cm/sec

Reference source for all entries: patent EP4768499A1
